Taken from PubChem BioAssay (EPA / NIEHS).

Read-out: Cytochrome P450 3A4 (Homo sapiens) (UniProt P08684)
Sequence (P08684 whole entry, looked up): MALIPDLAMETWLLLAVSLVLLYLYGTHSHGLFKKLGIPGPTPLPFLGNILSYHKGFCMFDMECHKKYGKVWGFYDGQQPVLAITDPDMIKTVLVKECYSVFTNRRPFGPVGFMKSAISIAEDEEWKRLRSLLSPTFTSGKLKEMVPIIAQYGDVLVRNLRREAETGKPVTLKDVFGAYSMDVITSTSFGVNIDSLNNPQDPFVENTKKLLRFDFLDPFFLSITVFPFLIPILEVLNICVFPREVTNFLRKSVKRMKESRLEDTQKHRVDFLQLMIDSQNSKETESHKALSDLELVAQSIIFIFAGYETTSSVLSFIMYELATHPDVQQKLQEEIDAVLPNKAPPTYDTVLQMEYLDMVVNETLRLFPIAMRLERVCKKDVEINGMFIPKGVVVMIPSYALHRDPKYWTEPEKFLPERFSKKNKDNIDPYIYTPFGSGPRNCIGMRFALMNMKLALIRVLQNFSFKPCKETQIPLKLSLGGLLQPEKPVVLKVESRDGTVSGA
Experiment: LTEA_HepaRG_CYP3A4: Life Technologies and Expression Analysis (LTEA) Assay for CYP3A4 using HepaRG (AID 2283487)
Conditions: mRNA level, 48 h; actives raise or lower the signal
Active and inactive are the calls of the source. Rule for the calls: active = hit-call score of the fitted dose curve at least 0.9, where 1 is the maximum; inactive = score below 0.9.
Would you mind answering with one of these outcomes? 1 = active, -1 = inactive

Task: For `Nc1c(Cl)cc([N+](=O)[O-])cc1Cl` , which call appears in the assay record?
Result: 1

Task: For `S=C1NCCN1` , which call appears in the assay record?
Result: -1

Task: For `O=c1ccc(=O)[nH][nH]1` , which call appears in the assay record?
Result: -1

Task: For `O=[N+]([O-])c1cc(C(F)(F)F)c(Cl)c([N+](=O)[O-])c1Nc1ncc(C(F)(F)F)cc1Cl` , which call appears in the assay record?
Result: 1

Task: For `CCCCN(CC)c1c([N+](=O)[O-])cc(C(F)(F)F)cc1[N+](=O)[O-]` , which call appears in the assay record?
Result: 1

Task: For `CCOC(=O)COc1cc(-c2nn(C)c(OC(F)F)c2Cl)c(F)cc1Cl` , which call appears in the assay record?
Result: 1

Task: For `CCCCOC(=O)[C@@H](C)Oc1ccc(Oc2ccc(C#N)cc2F)cc1` , which call appears in the assay record?
Result: -1

---

Test: ATG_CRE_CIS: Attagene CIS-FACTORIAL HepG2 Assay for human cAMP Responsive Element (CRE) binding protein 3 (AID 2282926)
Settings: HepG2 CRE cis-reporter, Attagene multiplexed mRNA; actives raise or lower the signal
Active and inactive are the calls of the source. How the source made its calls: active means hit-call score of the fitted dose curve at least 0.9, where 1 is the maximum; inactive means score below 0.9.
Would you mind answering with one of these outcomes? active, inactive

Task: For `CCCCN(CC)c1c([N+](=O)[O-])cc(C(F)(F)F)cc1[N+](=O)[O-]` , which call appears in the assay record?
Result: inactive

Task: For `Cc1cc(C2CC2)nc(Nc2ccccc2)n1` , which call appears in the assay record?
Result: active

Task: For `CSC1=N[C@@](C)(c2ccccc2)C(=O)N1Nc1ccccc1` , which call appears in the assay record?
Result: active

Task: For `CCCOc1nn(C(=O)NS(=O)(=O)c2ccccc2C(=O)OC)c(=O)n1C` , which call appears in the assay record?
Result: inactive

Task: For CCOC(=O)CC(SP(=O)(OC)OC)C(=O)OCC (centres undefined) , which call appears in the assay record?
Result: inactive

Task: For `CCC(CC)Nc1c([N+](=O)[O-])cc(C)c(C)c1[N+](=O)[O-]` , which call appears in the assay record?
Result: inactive

Task: For `CCOP(=O)(OCC)Oc1cc(C)nc(C(C)C)n1` , which call appears in the assay record?
Result: inactive

Task: For `CC(=NC#N)N(C)Cc1ccc(Cl)nc1` , which call appears in the assay record?
Result: inactive

Task: For COP(=O)(OC)C(O)C(Cl)(Cl)Cl (centres undefined) , which call appears in the assay record?
Result: active

Task: For `CC(C)N(C(=O)SCC(Cl)=C(Cl)Cl)C(C)C` , which call appears in the assay record?
Result: active

Task: For `CC1=NNC(=O)N(/N=C/c2cccnc2)C1` , which call appears in the assay record?
Result: inactive

Task: For `CCCCOC(=O)[C@@H](C)Oc1ccc(Oc2ccc(C#N)cc2F)cc1` , which call appears in the assay record?
Result: inactive

Task: For CC(C1CC1)C(O)(Cn1cncn1)c1ccc(Cl)cc1 (centres undefined) , which call appears in the assay record?
Result: inactive

Task: For CCOP(=S)(Oc1cnc(C(C)(C)C)nc1)OC(C)C (centres undefined) , which call appears in the assay record?
Result: inactive

Task: For `CNc1cnn(-c2cccc(C(F)(F)F)c2)c(=O)c1Cl` , which call appears in the assay record?
Result: active

Task: For `CCC(=O)Nc1ccc(Cl)c(Cl)c1` , which call appears in the assay record?
Result: inactive

Task: For COP(=O)(NC(C)=O)SC (centres undefined) , which call appears in the assay record?
Result: inactive

Task: For `S=C1NCCN1` , which call appears in the assay record?
Result: inactive

Task: For `CN1COCN(Cc2cnc(Cl)s2)C1=N[N+](=O)[O-]` , which call appears in the assay record?
Result: inactive

Task: For CCOP(=O)(NC(C)C)Oc1ccc(SC)c(C)c1 (centres undefined) , which call appears in the assay record?
Result: inactive

Task: For `CN(C)C(=O)Nc1cccc(C(F)(F)F)c1` , which call appears in the assay record?
Result: inactive

Task: For `Nc1nc(N)nc(NC2CC2)n1` , which call appears in the assay record?
Result: inactive

Task: For CCC(=NOC/C=C/Cl)C1=C(O)CC(C2CCOCC2)CC1=O (centres undefined) , which call appears in the assay record?
Result: inactive

Task: For `CCNc1nc(Cl)nc(NC(C)(C)C#N)n1` , which call appears in the assay record?
Result: inactive
